Measured EC50 accompanies every entry in the list below.
Assay: Inhibition of HCV genotype 2a JFH1 NS5B RNA dependent RNA polymerase infected in human HuH7 replicon cells after 3 days by luciferase reporter gene assay
Answer with a number only, understood to be in nM.

Recorded results for 3 compounds are shown here.
| structureNotation | EC50 [nM] |
| --- | --- |
| CNC(=O)c1c(-c2ccc(F)cc2)oc2ccc(-c3cccc(C(=O)NC4(c5ccccn5)CC4)c3)cc12 | 515 |
| CCN(C(=O)N(C)C)c1cc2oc(-c3ccc(F)cc3)c(C(=O)NC)c2cc1-c1ccc(OC)c(C(=O)NC2(c3ncccn3)CC2)c1 | 165 |
| CCN(C(C)=O)c1cc2oc(-c3ccc(F)cc3)c(C(=O)NC)c2cc1-c1ccc(OC)c(C(=O)NC2(c3ncccn3)CC2)c1 | 35 |

Now turn to the next compound.
Report EC50 for CCN(c1cc2oc(-c3ccc(F)cc3)c(C(=O)NC)c2cc1-c1cc(C)c(OC)c(C(=O)NC2(c3ncccn3)CC2)c1)S(C)(=O)=O please.
16

###

Measured pEC50 accompanies every entry in the list below.
Experiment: Inhibition of HCV genotype 1b NS5B RNA dependent RNA polymerase infected in human HuH7 replicon cells after 3 days by luciferase reporter gene assay
Worth noting: pEC50 values are minus log10 of concentrations stated in mol/L.

Recorded results for 2 molecules are shown here.
| structureNotation | recordedMeasurement |
| --- | --- |
| CNC(=O)c1c(-c2ccc(F)cc2)oc2cc(N(CCO)S(C)(=O)=O)c(-c3cccc(C(=O)NC4(c5ccccc5)CC4)c3)cc12 | 8.21 |
| CNC(=O)c1c(-c2ccc(F)cc2)oc2cc(N(CCO)S(C)(=O)=O)c(-c3cccc(C(=O)NC4(c5ccccn5)CC4)c3)cc12 | 7.28 |

Report pEC50 for CCN(c1cc2oc(-c3ccc(F)cc3)c(C(=O)NC)c2cc1-c1cccc(C(=O)NC2(c3ncccn3)CC2)c1)S(C)(=O)=O please.
8.06

Similarly, CCNc1cc2oc(-c3ccc(F)cc3)c(C(=O)NC)c2cc1-c1ccc(OC)c(C(=O)NC2(c3ncccn3)CC2)c1 ?
8.92

Similarly, CNC(=O)c1c(-c2ccc(F)cc2)oc2ccc(-c3cccc(C(=O)NC4(c5ccccn5)CC4)c3)cc12 ?
8.42

###

Assay: Inhibition of HCV genotype 1a NS5B RNA dependent RNA polymerase infected in human HuH7 replicon cells after 3 days by luciferase reporter gene assay
Measured log10 EC50 accompanies every entry in the list below.
Please note: log10 values; quantity EC50; unit nM.

Recorded results for 4 molecules are shown here.
| structureNotation | log10 EC50 |
| --- | --- |
| CCN(c1cc2oc(-c3ccc(F)cc3)c(C(=O)NC)c2cc1-c1cccc(C(=O)NC2(c3ncccn3)CC2)c1)S(C)(=O)=O | 0.89 |
| CNC(=O)c1c(-c2ccc(F)cc2)oc2cc(N(CCO)S(C)(=O)=O)c(-c3cccc(C(=O)NC4(c5ccccc5)CC4)c3)cc12 | 0.76 |
| CCNc1cc2oc(-c3ccc(F)cc3)c(C(=O)NC)c2cc1-c1ccc(OC)c(C(=O)NC2(c3ncccn3)CC2)c1 | 0.36 |
| CNC(=O)c1c(-c2ccc(F)cc2)oc2ccc(-c3cccc(C(=O)NC4(c5ccccn5)CC4)c3)cc12 | 1.56 |

Now turn to the next molecule.
Report log10 EC50 for CNC(=O)c1c(-c2ccc(F)cc2)oc2cc(N(CCO)S(C)(=O)=O)c(-c3cccc(C(=O)NC4(c5ccccn5)CC4)c3)cc12 please.
1.54

###

Assay: Inhibition of HCV genotype 2a JFH1 NS5B RNA dependent RNA polymerase infected in human HuH7 replicon cells after 3 days by luciferase reporter gene assay
Measured pEC50 accompanies every entry in the list below.
Worth noting: pEC50 values are minus log10 of concentrations stated in mol/L.

Recorded results for 2 compounds are shown here.
| structureNotation | pEC50 |
| --- | --- |
| CCN(C(=O)C(F)(F)F)c1cc2oc(-c3ccc(F)cc3)c(C(=O)NC)c2cc1-c1ccc(OC)c(C(=O)NC2(c3ncccn3)CC2)c1 | 7.70 |
| CCN(c1cc2oc(-c3ccc(F)cc3)c(C(=O)NC)c2cc1-c1cc(Cl)c(OC)c(C(=O)NC2(c3ncccn3)CC2)c1)S(C)(=O)=O | 8.18 |

Now turn to the next compound.
Report pEC50 for CCN(c1cc2oc(-c3ccc(F)cc3)c(C(=O)NC)c2cc1-c1cccc(C(=O)NC2(c3ncccn3)CC2)c1)S(C)(=O)=O please.
8.27

###

Test: Inhibition of HCV genotype 2a JFH1 NS5B RNA dependent RNA polymerase infected in human HuH7 replicon cells after 3 days by luciferase reporter gene assay
Please use T for EC50 under 10 nM and F for everything else, ties included.

# example entries with known answers
| structureNotation | class |
| --- | --- |
| CCN(C(=O)OC)c1cc2oc(-c3ccc(F)cc3)c(C(=O)NC)c2cc1-c1ccc(OC)c(C(=O)NC2(c3ncccn3)CC2)c1 | F |
| CNC(=O)c1c(-c2ccc(F)cc2)oc2cc(N(CCO)S(C)(=O)=O)c(-c3cccc(C(=O)NC4(c5ccccn5)CC4)c3)cc12 | F |
| CNC(=O)c1c(-c2ccc(F)cc2)oc2cc(N(CCO)S(C)(=O)=O)c(-c3cccc(C(=O)NC4(c5ccccc5)CC4)c3)cc12 | T |
| CCNc1cc2oc(-c3ccc(F)cc3)c(C(=O)NC)c2cc1-c1ccc(OC)c(C(=O)NC2(c3ncccn3)CC2)c1 | F |
| CCN(c1cc2oc(-c3ccc(F)cc3)c(C(=O)NC)c2cc1-c1cc(F)c(F)c(C(=O)NC2(c3ncccn3)CC2)c1)S(C)(=O)=O | T |
| CCN(c1cc2oc(-c3ccc(F)cc3)c(C(=O)NC)c2cc1-c1cc(F)c(OC)c(C(=O)NC2(c3ncccn3)CC2)c1)S(C)(=O)=O | T |

Consider CCN(c1cc2oc(-c3ccc(F)cc3)c(C(=O)NC)c2cc1-c1ccc(OC)c(C(=O)NC2(c3ncccn3)CC2)c1)S(C)(=O)=O . Does its EC50 lie strictly below 10 nM?
F
